Test system: HCC-78
ASSAY_NOTES: relative viability (nuclei count vs DMSO), 5 days (fraction); higher = more cells survive
EXPERIMENTAL_SETUP: first compound 0.01 µM
Label YES when relative viability is strictly below 0.6; otherwise label NO.

Strictly below 0.6: is that where relative viability of Cc1cn(-c2cc(NC(=O)c3ccc(C)c(Nc4nccc(-c5cccnc5)n4)c3)cc(C(F)(F)F)c2)cn1 [Nilotinib] + C[C@]1(O)C[C@@H](c2nc(-c3ccc4ccc(-c5ccccc5)nc4c3)c3c(N)nccn32)C1 [Linsitinib] (partner 1 µM) sits? NO

Strictly below 0.6: is that where relative viability of Cc1cn(-c2cc(NC(=O)c3ccc(C)c(Nc4nccc(-c5cccnc5)n4)c3)cc(C(F)(F)F)c2)cn1 [Nilotinib] + Nc1ncn([C@H]2C[C@H](O)[C@@H](CO)O2)c(=O)n1 [Decitabine] (partner 2 µM) sits? NO

Strictly below 0.6: is that where relative viability of Cc1cn(-c2cc(NC(=O)c3ccc(C)c(Nc4nccc(-c5cccnc5)n4)c3)cc(C(F)(F)F)c2)cn1 [Nilotinib] + O=C(c1cc(Cc2n[nH]c(=O)c3ccccc23)ccc1F)N1CCN(C(=O)C2CC2)CC1 [Olaparib] (partner 8 µM) sits? NO

Strictly below 0.6: is that where relative viability of Cc1cn(-c2cc(NC(=O)c3ccc(C)c(Nc4nccc(-c5cccnc5)n4)c3)cc(C(F)(F)F)c2)cn1 [Nilotinib] + CS(=O)(=O)N1CCN(Cc2cc3nc(-c4cccc5[nH]ncc45)nc(N4CCOCC4)c3s2)CC1 [Pictilisib] (partner 1 µM) sits? YES

Strictly below 0.6: is that where relative viability of Cc1cn(-c2cc(NC(=O)c3ccc(C)c(Nc4nccc(-c5cccnc5)n4)c3)cc(C(F)(F)F)c2)cn1 [Nilotinib] + N=C(N)NC(=N)NCCc1ccccc1 [Phenformin] (partner 250 µM) sits? NO

Strictly below 0.6: is that where relative viability of Cc1cn(-c2cc(NC(=O)c3ccc(C)c(Nc4nccc(-c5cccnc5)n4)c3)cc(C(F)(F)F)c2)cn1 [Nilotinib] + CC(C)C[C@H](NC(=O)[C@H](Cc1ccccc1)NC(=O)c1cnccn1)B(O)O [Bortezomib] (partner 0.002 µM) sits? NO

Strictly below 0.6: is that where relative viability of Cc1cn(-c2cc(NC(=O)c3ccc(C)c(Nc4nccc(-c5cccnc5)n4)c3)cc(C(F)(F)F)c2)cn1 [Nilotinib] + C[C@@H](Oc1cc(-c2cnn(C3CCNCC3)c2)cnc1N)c1c(Cl)ccc(F)c1Cl [Crizotinib] (partner 1 µM) sits? YES
